Test system: HT-1080
protocolSummary: Antiproliferative activity against human HT-1080 cells incubated for 24 hrs by MTT assay
Assay type: functional, cell-based
appliedConditions: HT-1080, 24 h
measurementKind: IC50

Recorded results for 2 compounds are shown here.
>  <smilesEntry>
CC1(C)/C=C/[C@H](O)[C@@]2(C)O[C@@H]2CCC2=C[C@@H]1OC2=O

>  <valueMeasured>
> 10 µM

$$$$
>  <smilesEntry>
CC1(C)/C=C/C(=O)[C@@]2(C)O[C@H]2CCC2=C[C@@H]1OC2=O

>  <valueMeasured>
6.54 µM

$$$$

Please turn your attention to the following entry.
Asked: I have this compound here, CC1(C)/C=C/[C@H](O)[C@@]2(C)O[C@H]2CCC2=C[C@@H]1OC2=O , and I need its recorded IC50.
Given back: > 10 µM

====

A collection of compounds and their measured IC50
Test system: HeLa
protocolSummary: Antiproliferative activity against human HeLa cells incubated for 24 hrs by MTT assay
Format: functional, cell-based

Sample records with IC50:
>  <compound>
C/C1=C/CCC2=C[C@H](OC2=O)C(C)(C)/C=C/C1=O

>  <IC50>
8.19 µM

$$$$
>  <compound>
CC1(C)/C=C/[C@H](O)[C@@]2(C)O[C@H]2CCC2=C[C@@H]1OC2=O

>  <IC50>
> 10 µM

$$$$

Switching to the query record.
Asked: // returns reported IC50 for input CC1(C)[C@H]2[C@H]3[C@@H]1OC(=O)C31CC[C@@H]3O[C@]3(C)C(=O)[C@H]21 (stereo partly drawn)
Given back: > 10 µM

====

# pIC50 per entry
Tested on: HT-1080
protocolSummary: Antiproliferative activity against human HT-1080 cells incubated for 24 hrs by MTT assay
Assay type: functional, cell-based
appliedConditions: HT-1080, 24 h
pIC50: −log10 of the molar value.

>  <compound>
C/C1=C\CCC2=C[C@H](OC2=O)C(C)(C)/C=C/C1=O

>  <assayedSystem>
HT-1080

>  <pIC50>
5.27

$$$$
>  <compound>
CC1(C)/C=C/C(=O)[C@@]2(C)O[C@@H]2CCC2=C[C@@H]1OC2=O

>  <assayedSystem>
HT-1080

>  <pIC50>
< 5.00

$$$$
>  <compound>
C/C1=C\CCC2=C[C@H](OC2=O)C(C)(C)/C=C/[C@@H]1O

>  <assayedSystem>
HT-1080

>  <pIC50>
< 5.00

$$$$
>  <compound>
C/C1=C/CCC2=C[C@H](OC2=O)C(C)(C)/C=C\C1=O

>  <assayedSystem>
HT-1080

>  <pIC50>
< 5.00

$$$$

Asked: Entry C/C1=C/CC[C@@H]2C(=O)O[C@H]3[C@@H]2C(=CC3(C)C)C1=O has what pIC50?
Given back: < 5.00

Asked: Which pIC50 reading was recorded for the compound C/C1=C/CCC23C(=O)O[C@H]4[C@@H]2[C@@H](C1=O)[C@@H]3C4(C)C ?
Given back: < 5.00

Asked: Request the reported pIC50 associated with CC1(C)[C@H]2[C@H]3[C@@H]1OC(=O)C31CC[C@@H]3O[C@]3(C)C(=O)[C@H]21 (some centres undefined)
Given back: < 5.00

Asked: Endpoint output: pIC50 of CC1=CCCC23C(=O)O[C@H]4[C@@H]2[C@@H]([C@H]3C1=O)C4(C)C (some centres undefined) . Value?
Given back: < 5.00

Asked: Query: pIC50; subject: C/C1=C/CCC2=C[C@H](OC2=O)C(C)(C)/C=C/C1=O
Given back: 5.09

====

Tested on: PC-3
protocolSummary: Antiproliferative activity against human PC-3 cells incubated for 24 hrs by MTT assay
Type: functional, cell-based
appliedConditions: PC-3, 24 h
Listed here are compounds together with their documented IC50.

Before answering, review these 6 worked examples.
>  <compound>
CC1(C)/C=C/C(=O)[C@@]2(C)O[C@@H]2CCC2=C[C@@H]1OC2=O

>  <measurementKind>
IC50

>  <valueMeasured>
> 10 µM

$$$$
>  <compound>
C/C1=C/CCC2=C[C@H](OC2=O)C(C)(C)/C=C/C1=O

>  <measurementKind>
IC50

>  <valueMeasured>
2.65 µM

$$$$
>  <compound>
CC1(C)/C=C/C(=O)[C@@]2(C)O[C@H]2CCC2=C[C@@H]1OC2=O

>  <measurementKind>
IC50

>  <valueMeasured>
1.81 µM

$$$$
>  <compound>
CC1(C)[C@H]2[C@H]3[C@@H]1OC(=O)C31CC[C@@H]3O[C@]3(C)C(=O)[C@H]21 (some centres not stated)

>  <measurementKind>
IC50

>  <valueMeasured>
> 10 µM

$$$$
>  <compound>
CC1=CCCC23C(=O)O[C@H]4[C@@H]2[C@@H]([C@H]3C1=O)C4(C)C (some centres not stated)

>  <measurementKind>
IC50

>  <valueMeasured>
> 10 µM

$$$$
>  <compound>
C/C1=C/CCC2=C[C@H](OC2=O)C(C)(C)/C=C\C1=O

>  <measurementKind>
IC50

>  <valueMeasured>
> 10 µM

$$$$

Now look at this entry.
Asked: Which IC50 is reported for this compound? CC1(C)/C=C/[C@H](O)[C@@]2(C)O[C@H]2CCC2=C[C@@H]1OC2=O
Given back: > 10 µM

====

This section presents molecules with their documented IC50 values.
System: Ca9-22
protocolSummary: Antiproliferative activity against human Ca9-22 cells incubated for 24 hrs by MTT assay
Assay type: functional, cell-based
appliedConditions: Ca9-22, 24 h
Answer in µM, number only, no unit symbol.

Asked: I would be grateful if you could share the reported IC50 for C/C1=C\CCC2=C[C@H](OC2=O)C(C)(C)/C=C/C1=O .
Given back: 4.79

Asked: Field request: IC50 | item: CC1(C)/C=C/C(=O)[C@@]2(C)O[C@H]2CCC2=C[C@@H]1OC2=O
Given back: 2.94

====

Tested on: HeLa
protocolSummary: Antiproliferative activity against human HeLa cells incubated for 24 hrs by MTT assay
Type: functional, cell-based
measurementKind: IC50

// solved cases for IC50 follow
>  <compound>
C/C1=C/CC[C@@H]2C(=O)O[C@H]3[C@@H]2C(=CC3(C)C)C1=O

>  <assayedSystem>
HeLa

>  <valueMeasured>
> 10 µM

$$$$
>  <compound>
CC1(C)/C=C/[C@H](O)[C@@]2(C)O[C@@H]2CCC2=C[C@@H]1OC2=O

>  <assayedSystem>
HeLa

>  <valueMeasured>
> 10 µM

$$$$
>  <compound>
C/C1=C/CCC2=C[C@H](OC2=O)C(C)(C)/C=C\C1=O

>  <assayedSystem>
HeLa

>  <valueMeasured>
> 10 µM

$$$$

Asked: Report IC50 for CC1(C)/C=C/C(=O)[C@@]2(C)O[C@@H]2CCC2=C[C@@H]1OC2=O please.
Given back: > 10 µM

Asked: Which IC50 is listed for C/C1=C\CCC2=C[C@H](OC2=O)C(C)(C)/C=C/[C@@H]1O ?
Given back: > 10 µM

Asked: Look at this compound and give its reported IC50. CC1=CCCC23C(=O)O[C@H]4[C@@H]2[C@@H]([C@H]3C1=O)C4(C)C (some centres undefined)
Given back: > 10 µM

====

Test system: Ca9-22
protocolSummary: Antiproliferative activity against human Ca9-22 cells incubated for 24 hrs by MTT assay
Assay type: functional, cell-based
appliedConditions: Ca9-22, 24 h
measurementKind: IC50

Asked: Consider the compound shown here: CC1(C)/C=C/C(=O)[C@@]2(C)O[C@@H]2CCC2=C[C@@H]1OC2=O What is its recorded IC50?
Given back: > 10 µM

Asked: I would be grateful if you could share the reported IC50 for C/C1=C\CCC2=C[C@H](OC2=O)C(C)(C)/C=C/[C@@H]1O .
Given back: > 10 µM

Asked: If you can, please state the reported IC50 value of C/C1=C/CC[C@@H]2C(=O)O[C@H]3[C@@H]2C(=CC3(C)C)C1=O .
Given back: > 10 µM

====

// reported IC50 per item
Test system: PC-3
protocolSummary: Antiproliferative activity against human PC-3 cells incubated for 24 hrs by MTT assay
Type: functional, cell-based
appliedConditions: PC-3, 24 h

Example entries and their recorded answers appear below.
>  <smilesEntry>
C/C1=C/CCC23C(=O)O[C@H]4[C@@H]2[C@@H](C1=O)[C@@H]3C4(C)C

>  <assayedSystem>
PC-3

>  <IC50>
> 10 µM

$$$$
>  <smilesEntry>
CC1(C)/C=C/[C@H](O)[C@@]2(C)O[C@@H]2CCC2=C[C@@H]1OC2=O

>  <assayedSystem>
PC-3

>  <IC50>
> 10 µM

$$$$
>  <smilesEntry>
C/C1=C/CC[C@@H]2C(=O)O[C@H]3[C@@H]2C(=CC3(C)C)C1=O

>  <assayedSystem>
PC-3

>  <IC50>
> 10 µM

$$$$
>  <smilesEntry>
C/C1=C\CCC2=C[C@H](OC2=O)C(C)(C)/C=C/[C@@H]1O

>  <assayedSystem>
PC-3

>  <IC50>
> 10 µM

$$$$

Okay, now this compound:
Asked: Query: IC50; subject: C/C1=C\CCC2=C[C@H](OC2=O)C(C)(C)/C=C/C1=O
Given back: 3.13 µM
